biological target: GPR88 (Homo sapiens, UniProt Q9GZN0); experiment: Lance Ultra TR-FRET cAMP assay using stable PPLS-HA-GPR88 CHO cells; conditions: stable PPLS-HA-GPR88 CHO cells; value in parentheses beside pEC50
Sequence (Q9GZN0 whole entry): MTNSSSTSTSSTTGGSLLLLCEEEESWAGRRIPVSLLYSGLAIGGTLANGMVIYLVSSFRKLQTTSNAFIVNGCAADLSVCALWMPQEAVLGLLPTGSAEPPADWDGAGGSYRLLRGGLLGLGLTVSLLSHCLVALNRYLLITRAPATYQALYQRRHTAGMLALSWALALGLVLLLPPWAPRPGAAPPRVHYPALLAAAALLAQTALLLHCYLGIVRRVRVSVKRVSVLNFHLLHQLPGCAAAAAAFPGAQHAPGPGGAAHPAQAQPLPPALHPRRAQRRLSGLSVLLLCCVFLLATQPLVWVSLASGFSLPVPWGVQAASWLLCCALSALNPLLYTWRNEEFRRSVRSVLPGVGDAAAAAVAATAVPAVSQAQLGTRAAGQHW
The following compounds are shown together with reported pEC50 values.
Scale explanation: pEC50 corresponds to minus log10 of a concentration expressed in moles per litre.

Some compounds with recorded pEC50:
1. CCCc1ccc(-c2ccc(N(C[C@@H](N)[C@@H](C)CC)C(=O)NC3(c4ccccc4)CC3)cc2)cc1
5.73
2. CCCc1ccc(-c2ccc(N(C[C@@H](N)[C@@H](C)CC)C(=O)N[C@@H](C)c3ccco3)cc2)cc1
5.59
3. CCc1ccc(-c2ccc(N(C[C@@H](N)[C@@H](C)OC)C(=O)N[C@@H](C)c3ccccc3)cc2)cc1
6.48
4. CCCc1ccc(-c2ccc([C@@H](Cn3ccnn3)C(=O)N[C@H](C)c3ccccc3)cc2)cc1
6.20
5. CCCc1ccc(-c2ccc(C(C(=O)N[C@H](C)c3ccccc3)C(=O)OC)cc2)cc1 (mixture of isomers)
5.89

query: Please look at this compound and report its pEC50: CCCc1ccc(-c2ccc([C@@H](CC)C(=O)N[C@H](C)c3ccccc3)cc2)cc1
result: 6.30

query: Could you please provide reported pEC50 for CCCc1ccc(-c2ccc(N(C[C@@H]3CCCN3)C(=O)N[C@@H](C)c3ccccc3)cc2)cc1 ? Thanks!
result: 5.76
